These measurements were taken from ChEMBL document CHEMBL1909046.

Assay: DRUGMATRIX: Calcium Channel Type L, Phenylalkylamine radioligand binding (ligand: [3H] (-)-Desmethoxyverapamil (D-888))
Format: cell membranes, Rattus norvegicus, Wistar, Brain, Membrane
Conditions: Not Active = under 50% inhibition at 10 µM; read-out: Ki
In this section we review reported Ki values for a set of compounds.
A number alone suffices; assume nM.

1. CN1CCCC(CN2c3ccccc3Sc3ccccc32)C1 (stereo not drawn) [MEPAZINE] = 1500
2. CCCCCCCCNC(C)C(O)c1ccc(SC(C)C)cc1 (stereo not drawn) [SULOCTIDIL] = 510
3. CCN(CC)CCCC(C)Nc1c2ccc(Cl)cc2nc2ccc(OC)cc12 (stereo not drawn) [QUINACRINE] = 719
4. N=C(N)c1ccc(OCCCCCOc2ccc(C(=N)N)cc2)cc1 [PENTAMIDINE] = 1350
5. CN(C)CCC=C1c2ccccc2CCc2ccccc21 [AMITRIPTYLINE] = 816

Query block: Ki for COC(=O)[C@H]1[C@H]2C[C@@H]3c4[nH]c5cc(OC)ccc5c4CCN3C[C@H]2C[C@@H](OC(=O)c2cc(OC)c(OC)c(OC)c2)[C@@H]1OC [RESERPINE] ?
Result block: 1990

Query block: So what does the record say about Ki for Cc1c(O)cccc1C(=O)N[C@@H](CSc1ccccc1)[C@H](O)CN1C[C@H]2CCCC[C@H]2C[C@H]1C(=O)NC(C)(C)C ?
Result block: 17900

Query block: I am curious: what Ki value has been reported for CN1CCN(C(c2ccccc2)c2ccccc2)CC1 [CYCLIZINE] ?
Result block: 4520

====

Assay: DRUGMATRIX: Imidazoline I2, Central radioligand binding (ligand: [3H] Idazoxan)
Assay type: cell membranes, Rattus norvegicus, Wistar, Cerebral cortex, Membrane
Conditions: Not Active = under 50% inhibition at 10 µM; read-out: IC50
reported-metric: pIC50
Scale explanation: pIC50 corresponds to minus log10 of a concentration expressed in moles per litre.

Query block: Dear colleague, I am looking for the recorded pIC50 of the following compound: CC1CCC(NC(=O)N(CCCl)N=O)CC1 (stereo unspecified) [SEMUSTINE]
Result block: 5.79

====

Readings of IC50 for the listed compounds
Target: UniProt:P41145
Sequence (P41145 whole entry): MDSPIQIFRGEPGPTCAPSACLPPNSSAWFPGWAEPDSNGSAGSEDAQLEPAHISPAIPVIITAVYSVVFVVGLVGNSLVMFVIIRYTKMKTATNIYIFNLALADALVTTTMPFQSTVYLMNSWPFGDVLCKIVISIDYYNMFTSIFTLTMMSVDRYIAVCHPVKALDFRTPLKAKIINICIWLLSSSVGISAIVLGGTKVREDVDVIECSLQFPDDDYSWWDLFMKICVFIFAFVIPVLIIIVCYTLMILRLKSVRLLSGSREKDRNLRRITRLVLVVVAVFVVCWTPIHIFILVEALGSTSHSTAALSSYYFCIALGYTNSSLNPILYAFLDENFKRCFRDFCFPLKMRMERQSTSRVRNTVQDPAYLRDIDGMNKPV
Assay: DRUGMATRIX: Opiate kappa (OP2, KOP) radioligand binding (ligand: [3H] Diprenorphine)
Type: cell membranes, HEK293, Membrane
Conditions: Not Active = under 50% inhibition at 10 µM; read-out: IC50
State the answer as a number, implicitly in µM.

1. Clc1ccc(COC(Cn2ccnc2)c2ccc(Cl)cc2Cl)c(Cl)c1 (configuration not stated) = 6.59

Query block: Fill blank: measured IC50 of the compound Cc1c(O)cccc1C(=O)N[C@@H](CSc1ccccc1)[C@H](O)CN1C[C@H]2CCCC[C@H]2C[C@H]1C(=O)NC(C)(C)C is ____.
Result block: 36

====

Molecular target: UniProt:P15207
Sequence (P15207 whole entry): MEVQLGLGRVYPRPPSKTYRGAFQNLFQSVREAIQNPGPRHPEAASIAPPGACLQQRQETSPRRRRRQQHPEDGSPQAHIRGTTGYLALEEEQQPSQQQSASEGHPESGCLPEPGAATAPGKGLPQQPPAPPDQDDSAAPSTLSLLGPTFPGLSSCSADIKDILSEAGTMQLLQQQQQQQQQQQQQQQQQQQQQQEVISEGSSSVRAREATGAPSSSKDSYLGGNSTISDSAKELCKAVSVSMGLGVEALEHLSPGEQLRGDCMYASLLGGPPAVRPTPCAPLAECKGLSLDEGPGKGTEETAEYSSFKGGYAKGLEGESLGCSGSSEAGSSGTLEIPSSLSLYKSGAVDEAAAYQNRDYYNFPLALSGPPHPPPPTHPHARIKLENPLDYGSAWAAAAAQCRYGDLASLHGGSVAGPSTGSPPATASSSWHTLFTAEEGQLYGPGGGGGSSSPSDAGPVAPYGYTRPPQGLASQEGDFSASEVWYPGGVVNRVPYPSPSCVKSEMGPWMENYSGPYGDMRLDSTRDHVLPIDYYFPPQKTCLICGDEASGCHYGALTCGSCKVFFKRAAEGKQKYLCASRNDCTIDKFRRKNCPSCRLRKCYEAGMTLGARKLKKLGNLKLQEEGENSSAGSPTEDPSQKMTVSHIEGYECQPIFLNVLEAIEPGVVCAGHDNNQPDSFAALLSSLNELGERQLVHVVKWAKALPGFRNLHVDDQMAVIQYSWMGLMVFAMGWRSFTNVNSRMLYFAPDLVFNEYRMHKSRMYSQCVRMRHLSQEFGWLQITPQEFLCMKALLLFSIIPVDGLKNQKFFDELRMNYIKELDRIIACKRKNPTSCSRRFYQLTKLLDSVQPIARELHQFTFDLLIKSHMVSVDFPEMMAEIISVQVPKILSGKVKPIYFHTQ
reported-metric: IC50

1. NC(=O)c1cccc(N)c1 [3-AMINOBENZAMIDE] = Not Active
2. CCC1=C(C)CN(C(=O)NCCc2ccc(S(=O)(=O)NC(=O)N[C@H]3CC[C@H](C)CC3)cc2)C1=O [GLIMEPIRIDE] = Not Active
3. CC(=O)Oc1ccccc1C(=O)O [ASPIRIN] = Not Active
